The measurements presented in this section are drawn from PubChem BioAssay AID1259407.

# System: CCRIS mutagenicity, Ames/micronucleus/aberration tests
# method-description: CCRIS mutagenicity studies
# run-parameters: Test System: AMES SALMONELLA TYPHIMURIUM; Strain/Indicator: TA98; Metabolic Activation: NONE; Method: STANDARD PLATE
Activity calls are given as the source filed them. No rule for the calls is given here.
The reply should be one of these categories: active, inactive

Solved cases (3 shown):
>  <compound>
CCc1ccc(/C=C/c2ccc(N)cc2)cc1

>  <group>
inactive

$$$$
>  <compound>
CN(C)C(=O)c1nc(CNC(=O)CN)n(-c2ccc(Cl)cc2C(=O)c2ccccc2Cl)n1

>  <group>
inactive

$$$$
>  <compound>
O=CC1=CCCC2CC12C=O (stereo not drawn)

>  <group>
active

$$$$

Prompt: Status in this test for O=[N+]([O-])c1ccc2c3c(cccc13)CC2 ?
Response: active

Prompt: I would be grateful if you could indicate the recorded call for COC(=O)C12OC1(C)C(C)(O)OC2=O (stereo not drawn) .
Response: inactive

Prompt: In this assay, the call recorded for O=S(=O)(Oc1ccc(Cl)cc1Cl)c1cccc2cccnc12 was what?
Response: inactive

Prompt: For CC[C@H]1OC(=O)[C@H](C)[C@@H](O[C@H]2C[C@@](C)(OC)[C@@H](O)[C@H](C)O2)[C@H](C)[C@@H](O[C@@H]2O[C@H](C)C[C@H](N(C)C)[C@H]2O)[C@](C)(O)C[C@@H](C)CN(C)[C@H](C)[C@@H](O)[C@]1(C)O , which call appears in the assay record?
Response: inactive

Prompt: // param item: O=[N+]([O-])c1cc2c(cc1O)[nH]c1ccccc12 ; yields the recorded call
Response: active

* * *

# Test system: CCRIS mutagenicity, Ames/micronucleus/aberration tests
# method-description: CCRIS mutagenicity studies
# run-parameters: Test System: AMES SALMONELLA TYPHIMURIUM; Strain/Indicator: TA100; Metabolic Activation: RAT, LIVER, S-9, AROCLOR 1254; Method: STANDARD PLATE
Active and inactive are the calls of the source. How the calls were made is not given here.
Use one of these outcomes when replying: true (1) = active, false (0) = inactive

>  <molecule>
C1CCC2OCCOCCOCCOCCOC3CCCCC3OCCOCCOCCOCCOC2C1 (centres undefined)

>  <group>
false (0)

$$$$
>  <molecule>
C[C@]12C=CC3=C4CCC(=O)C=C4CC[C@H]3[C@@H]1CC[C@H]2O

>  <group>
false (0)

$$$$
>  <molecule>
N#CC(Cl)Cl

>  <group>
true (1)

$$$$
>  <molecule>
CC[C@H]1OC(=O)[C@H](C)[C@@H](O[C@H]2C[C@@](C)(OC)[C@@H](O)[C@H](C)O2)[C@H](C)[C@@H](O[C@@H]2O[C@H](C)C[C@H](N(C)C)[C@H]2O)[C@](C)(O)C[C@@H](C)CN(C)[C@H](C)[C@@H](O)[C@]1(C)O

>  <group>
false (0)

$$$$
>  <molecule>
c1cc2ccc3ccnc4ccc(c1)c2c34

>  <group>
true (1)

$$$$

Prompt: What is the recorded call for this molecule in the test? C\C=C(/C=C(C)/C=C(C)/C=C/C=C(\C)C(=O)[C@]12O[C@H]1[C@@](O)(CCO)NC2=O)C(=O)OC
Response: true (1)

Prompt: Record request — test call for C=C(C)C(=O)OCC(C)(C)C
Response: false (0)

Prompt: Check the results log: what was the call for O=[N+]([O-])O[C@H]1CO[C@H]2[C@@H]1OC[C@H]2O[N+](=O)[O-] ?
Response: false (0)

Prompt: Hi team, can someone confirm the assay call for CCCS(=O)(=O)n1ncc(Cl)c(Cl)c1=O ?
Response: true (1)

Prompt: I would be grateful if you could indicate the recorded call for c1ccc2c(c1)ccc1c3cccnc3ccc21 .
Response: true (1)

Prompt: How was CC(=O)Nc1ccc(C(=O)[C@H]2O[C@H]2c2ccccc2)cc1 classified in this test?
Response: true (1)

Prompt: Check the results log: what was the call for Nc1c(Br)cc([N+](=O)[O-])cc1[N+](=O)[O-] ?
Response: true (1)

Prompt: Fill in: this test's call for CC1=CCC(C(C)(C)O)CC1 (centres undefined) is ___
Response: false (0)

Prompt: Just curious, what result did CCCCOC(=O)c1cccc2cccnc12 get here?
Response: false (0)

Prompt: Each molecule tested received a call. Report the one for CC(C)(O)CCc1ccc(O)c2c(=O)c3c(O)c4c(cc3oc12)O[C@H]1OC=C[C@@H]41 .
Response: true (1)
